PROCEDURE_SUMMARY: CCTE_Mundy_HCI_hNP1_Casp3_7: CCTE's Caspase-Glo 3/7 Assay in human neuroprogenitor cells for Apoptosis, Mundy Lab (AID 2284240)
Calls of active or inactive are those of the source. The calls were made as follows: active = hit-call score of the fitted dose curve at least 0.9, where 1 is the maximum; inactive = score below 0.9.
Give one outcome, nothing more. List: active, inactive

Example cases with answers are listed next.
| COMPOUND | CLASS_NAME |
| --- | --- |
| F | inactive |
| CC(=O)N[C@@H](CC(=O)O)C(=O)O | inactive |
| CCc1ccccc1 | inactive |

*Q* Write down the call the test reported for this compound. Item: CCCCCC(C)(CC)C(=O)NC (configuration not stated)
*A* inactive

*Q* Per the assay record, what outcome was assigned to CC(C)c1nn(C(=O)NC(C)(C)C)c(=O)n1N ?
*A* inactive

*Q* Hey, what did the test say about O=C(CC(=O)C(F)(F)F)C(F)(F)F ?
*A* inactive

*Q* Hi team, can someone confirm the assay call for C[C@@H]1CCO[C@H]2Cn3cc(C(=O)NCc4ccc(F)cc4F)c(=O)c(O)c3C(=O)N12 ?
*A* active

---

PROCEDURE_SUMMARY: CCTE_Shafer_MEA_dev_network_spike_number: CCTE's Neural Network Formation Assay for Number of Network Spikes, Shafer Lab (AID 2284048);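 also: synchronized bursts across electrodes counted on days 5 7 9 12 and integrated as AUC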
Activity calls are given as the source filed them. Rule for the calls: active = hit-call score of the fitted dose curve at least 0.9, where 1 is the maximum; inactive = score below 0.9.
Select the correct class. Options are 1 for active, 0 for inactive and nothing else.

| COMPOUND | CLASS_NAME |
| --- | --- |
| Brc1cc(Br)c(Oc2cc(Br)c(Br)cc2Br)cc1Br | 0 |

*Q* Answer briefly: the call reported for BrC1CC(Br)CC(Br)CC(Br)CC(Br)CC(Br)C1 (stereo not drawn) in this assay.
*A* 1

*Q* How was CCCCCC(C)(CC)C(=O)NC (stereo not drawn) classified in this test?
*A* 0

*Q* // param item: C[C@@H]1CC[C@@H](C(C)(C)O)[C@H](O)C1 ; yields the recorded call
*A* 0

---

PROCEDURE_SUMMARY: CCTE_Shafer_MEA_dev_burst_duration_mean: CCTE's Neural Network Formation Assay for Mean Burst Duration, Shafer Lab (AID 2284045)
Active and inactive are the calls of the source. How the source made its calls: active means hit-call score of the fitted dose curve at least 0.9, where 1 is the maximum; inactive means score below 0.9.
Answer with one of the outcomes true (1) = active, false (0) = inactive

Sample answers from the record:
| COMPOUND | CLASS_NAME |
| --- | --- |
| CC(C)c1nn(C(=O)NC(C)(C)C)c(=O)n1N | false (0) |
| CC(C)O | false (0) |
| BrC1CC(Br)CC(Br)CC(Br)CC(Br)CC(Br)C1 (stereo unspecified) | false (0) |
| CC(=O)N[C@@H](CC(=O)O)C(=O)O | false (0) |
| CC(CNC(=S)[S-])NC(=S)[S-].[Zn+2] (stereo unspecified) | true (1) |

Would you kindly look at the next entry?
*Q* For C[C@@H]1CC[C@@H](C(C)(C)O)[C@H](O)C1 , what call appears in the results of this test?
*A* false (0)

---

EXPERIMENTAL_SYSTEM: PGR (gene 5241) (UniProt P06401)
Sequence (P06401 whole entry, looked up): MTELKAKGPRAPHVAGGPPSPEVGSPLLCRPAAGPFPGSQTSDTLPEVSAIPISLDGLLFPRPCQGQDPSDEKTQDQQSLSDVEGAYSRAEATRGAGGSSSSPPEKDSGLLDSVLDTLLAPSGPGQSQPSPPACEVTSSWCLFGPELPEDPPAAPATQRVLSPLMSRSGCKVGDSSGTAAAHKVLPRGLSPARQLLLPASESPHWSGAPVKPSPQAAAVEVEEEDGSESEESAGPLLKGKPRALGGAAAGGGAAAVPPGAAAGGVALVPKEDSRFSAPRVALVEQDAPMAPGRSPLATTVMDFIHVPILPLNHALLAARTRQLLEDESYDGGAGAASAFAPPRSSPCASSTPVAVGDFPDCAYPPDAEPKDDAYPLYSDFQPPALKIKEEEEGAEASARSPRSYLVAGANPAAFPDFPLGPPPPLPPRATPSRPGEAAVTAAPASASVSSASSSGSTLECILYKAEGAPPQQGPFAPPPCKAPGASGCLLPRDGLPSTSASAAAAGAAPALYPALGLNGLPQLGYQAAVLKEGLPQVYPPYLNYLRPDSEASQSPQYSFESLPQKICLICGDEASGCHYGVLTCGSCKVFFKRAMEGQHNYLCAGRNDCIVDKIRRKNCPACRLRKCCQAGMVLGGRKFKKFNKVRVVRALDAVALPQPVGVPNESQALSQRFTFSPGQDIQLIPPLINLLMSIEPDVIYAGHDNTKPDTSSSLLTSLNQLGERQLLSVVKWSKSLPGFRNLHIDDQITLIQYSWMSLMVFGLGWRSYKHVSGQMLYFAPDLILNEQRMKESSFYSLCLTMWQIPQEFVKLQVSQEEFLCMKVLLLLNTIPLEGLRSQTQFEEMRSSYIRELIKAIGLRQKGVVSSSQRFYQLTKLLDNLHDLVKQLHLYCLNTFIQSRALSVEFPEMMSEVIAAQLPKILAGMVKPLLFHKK
PROCEDURE_SUMMARY: TOX21_PR_LUC_Followup_Agonist: Tox21 HEK293 Progesterone Receptor (PR) Agonism Luciferase Follow-Up Assay (AID 2283937)
Active and inactive are the calls of the source. How the source made its calls: active means hit-call score of the fitted dose curve at least 0.9, where 1 is the maximum; inactive means score below 0.9.
Outcome field: choose from 1.0 (active), 0.0 (inactive)

Illustrative cases are given below, each with its answer.
| COMPOUND | CLASS_NAME |
| --- | --- |
| CCN(CC)CC(=O)OCC(=O)[C@@]1(O)CC[C@H]2[C@@H]3CCC4=CC(=O)CC[C@]4(C)[C@H]3[C@@H](O)C[C@@]21C | 1.0 |
| CCC(=O)Oc1ccc2c(c1)CC[C@@H]1[C@@H]2CC[C@@]2(C)[C@H]1C[C@@H](OC(=O)CC)[C@@H]2OC(=O)CC | 1.0 |
| CCC(=O)O[C@]1(C(=O)COC)[C@@H](C)C[C@H]2[C@@H]3CCC4=CC(=O)C=C[C@]4(C)C3(F)[C@@H](O)C[C@@]21C (some centres not stated) | 1.0 |
| CCOC(=O)C1=C(C)NC(C)=C(C(=O)OC)C1c1cccc(Cl)c1Cl (configuration not stated) | 0.0 |
| CC(=O)OCC(=O)[C@@]1(O)CC[C@H]2[C@@H]3CCC4=CC(=O)CC[C@]4(C)[C@H]3C(=O)C[C@@]21C | 0.0 |

*Q* What did the test return for CC(=O)O[C@H]1CC[C@@]2(C)C(=CC[C@@H]3[C@@H]2CC[C@]2(C)C(C(C)=O)=CC[C@@H]32)C1 ?
*A* 0.0

*Q* Recorded test call requested for COC(=O)[C@@H]1CC2=CC(=O)CC[C@]2(C)[C@@]23O[C@@H]2C[C@@]2(C)[C@@H](CC[C@@]24CCC(=O)O4)[C@H]13
*A* 0.0
